System: Palivizumab
Test: Microtiter plate chromatography of resins, Palivizumab (bound, yield)
Assay type: binding, humanized
Given measured Palivizumab Yield (%), output TRUE if it is greater than or equal to 80% and FALSE if not.

Incoming: Is the recorded value of Palivizumab Yield (%) equal to or greater than 80% for this compound? COc1ccc(NC(=O)c2nn(C)c3ncccc23)cc1C(=O)NCCCN
Outgoing: FALSE

Incoming: Is the recorded value of Palivizumab Yield (%) equal to or greater than 80% for this compound? COc1ccc(NC(=O)c2cc(-c3ccccc3)no2)cc1C(=O)NCCCN
Outgoing: TRUE

Incoming: Would you say COc1ccc(NC(=O)c2nccc3ccccc23)cc1C(=O)NCCCN shows Palivizumab Yield (%) at minimum 80%?
Outgoing: TRUE

Incoming: Identify whether the reported Palivizumab Yield (%) of the following compound is 80% or greater: COc1ccc(NC(=O)c2cc(-c3ccco3)[nH]n2)cc1C(=O)NCCCN
Outgoing: TRUE

----------
Reported HCP Bound (%) values are given for each entry in this list.
System: host cell proteins (HCP)
Test: Microtiter plate chromatography of resins, host cell proteins (bound)
Type: binding, CHO
Conditions: host cell proteins
Report the figure in % without appending any unit label.

Here are 6 compounds together with their reported answers.
C#Cc1cncc(C(=O)Nc2ccc(OC)c(C(=O)NCCCN)c2)c1: 29
COc1ccc(NC(=O)c2cc(-c3cccn3C)n(C)n2)cc1C(=O)NCCCN: 51
Cn1nc(C(=O)Nc2ccc(O)c(C(=O)NCCCN)c2)cc1-c1ccco1: 42
COc1ccc(NC(=O)c2cc3ccccn3n2)cc1C(=O)NCCCN: 20
COc1ccc(NC(=O)c2nn(C)c3ncccc23)cc1C(=O)NCCCN: 4
COc1ccc(NC(=O)c2cncc(-c3ccc(C(F)(F)F)cc3)c2)cc1C(=O)NCCCN: 63

Now for a further compound.
Incoming: Indicate the recorded HCP Bound (%) value for this compound: COc1ccc(NC(=O)c2cc(C)n(C)n2)cc1C(=O)NCCCN
Outgoing: 17

----------
Listed below: Palivizumab Yield (%) values for each entry.
Tested on: Palivizumab
Assay: Microtiter plate chromatography of resins, Palivizumab (bound, yield)
Format: binding, humanized
Return type: number; implicit unit %.

COc1ccc(NC(=O)c2cncc(-c3ccccc3)c2)cc1C(=O)NCCCN: 75

Incoming: Report value only: Palivizumab Yield (%), Palivizumab, COc1ccc(NC(=O)c2cncc(-c3cc4ccccc4s3)c2)cc1C(=O)NCCCN
Outgoing: 61

Incoming: Report measured Palivizumab Yield (%) on Palivizumab; entry: Cn1nc(C(=O)Nc2ccc(O)c(C(=O)NCCCN)c2)cc1-c1ccco1
Outgoing: 66

Incoming: Name the recorded Palivizumab Yield (%) of NCCCNC(=O)c1cccc(C(=O)Nc2cc(-c3ccco3)[nH]n2)c1 , assay system Palivizumab.
Outgoing: 26

Incoming: Quote Palivizumab Yield (%) with test system Palivizumab for COc1ccc(NC(=O)c2cn(C)c3ccccc23)cc1C(=O)NCCCN
Outgoing: 78

Incoming: Supply Palivizumab Yield (%) measured with Palivizumab for COc1ccc(NC(=O)c2nnc(-c3ccco3)o2)cc1C(=O)NCCCN .
Outgoing: 83

Incoming: Please indicate recorded Palivizumab Yield (%) of COc1ccc(NC(=O)c2cc3ccccn3n2)cc1C(=O)NCCCN measured with Palivizumab.
Outgoing: 85

Incoming: Give the observed Palivizumab Yield (%) of COc1ccc(NC(=O)c2cn3cccnc3n2)cc1C(=O)NCCCN for Palivizumab.
Outgoing: 0

Incoming: Enter Palivizumab Yield (%) (test system Palivizumab) for COc1ccc(NC(=O)c2nnc3ccccn23)cc1C(=O)NCCCN
Outgoing: 43

The measurements presented in this section are drawn from patent US20130131321A1.
